B1: HDV Ribozyme (parent)
chain: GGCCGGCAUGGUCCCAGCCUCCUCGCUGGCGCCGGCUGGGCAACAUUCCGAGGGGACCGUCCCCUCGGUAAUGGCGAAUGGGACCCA

variants of: B1; assay: self-cleavage, relative activity (ratio to wild type); higher = more cleavage; co-transcriptional
The following ranges of self-cleavage define the classes used here: c1 (below 0.1), c2 (0.1 to below 0.3), c3 (0.3 or more)

Variant annotation	Group
G39C G54A	c2
C24A U46C	c2
C36G A45U	c1
G6U G76C	c3
C21U C41A	c3
U9C U46G	c3
C18U C24U	c2
A56G U79G	c3
G5A A56G	c2
C14A G39C	c1

The measurements presented in this section are drawn from the RNAGym collection of RNA variant scans (doi:10.7554/elife.80360).
